# run.description: protein stability index of a GFP-peptide fusion (yeast GPS) (PSI 1-4); higher = more stable; sorted into four equal gates, so the index is relative within each strain
# condition: pdr5∆
Threshold check on protein stability index: at or above 3 gives Condition met, strictly below gives Condition not met.

{"construct.sequence": "SNIIHDESDTISFRSNL [SNF6]", "cat": "Condition not met"}

Form field: protein stability index at least 3? Entry: ANLGKYGILSIDDLIHE [RPL7A]
Condition not met

---

# run.description: protein stability index of a GFP-peptide fusion (yeast GPS) (PSI 1-4); higher = more stable; sorted into four equal gates, so the index is relative within each strain
# condition: doa10∆
Threshold check on protein stability index: at or above 3 gives label 1, strictly below gives label 0.

Completed entries (count: 8):
{"construct.sequence": "KIVVVRAEALNISGEFF [RPL16B]", "cat": "label 0"}
{"construct.sequence": "TNFSPTPANNGENAAEK [SNF2]", "cat": "label 0"}
{"construct.sequence": "RSISEPSINLDPDNTSF [ESC2]", "cat": "label 0"}
{"construct.sequence": "EKGKKVSGFKDEVLETV [RPS1B]", "cat": "label 1"}
{"construct.sequence": "KGEVVLVNIRTQTSKEQ [ITC1]", "cat": "label 0"}
{"construct.sequence": "SLSEGCDILVATPGRLI [PRP28]", "cat": "label 1"}
{"construct.sequence": "LFWKVKEEEGSFNNVIG [PRE2]", "cat": "label 1"}
{"construct.sequence": "TYGFLTPNLWAEQPLPV [RPS2]", "cat": "label 0"}

Form field: protein stability index at least 3? Entry: PLIMATCGSKGSTLNVS [RPO31]
label 0

Form field: protein stability index at least 3? Entry: SYLSETLISRISSLFTI [YML103C/NUP188]
label 0

Form field: protein stability index at least 3? Entry: HGTSTSAEDEENIIQRL [CDC53]
label 1

Form field: protein stability index at least 3? Entry: VTKILPHLIIQNHNSKS [IRR1]
label 0

Form field: protein stability index at least 3? Entry: VISLGPNLATFISSGTS [YJL039C/NUP192]
label 0
